Cited source: patent US8354443B2

Test system: recombinant AMPK proteins (α1β1γ1, α2β1γ1, α1(1-335), α1(1-394) or α2(1-394))
experimental protocol: Scintillation Proximity Assay (AMPK activation)
Assay type: biochemical, human
study conditions: effective concentration of activator for 50% of maximal enzyme activity; 2 hr at 30° C.; AMPK form not specified
Source text: Recombinant human AMPK α1β1γ1, α2β1γ1 or AMPK a subunit truncations α1 (1-335), α1 (1-394) and α2(1-394) were constructed, expressed and purified as described previously (Pang, T., Zhang, Z. S., Gu, M., Qiu, B. Y., Yu, L. F., Cao, P. R., Shao, W., Su, M. B., Li, J. Y., Nan, F. J., and Li, J. (2008) or purchased from Invitrogen (San Diego, Calif., U.S.A.). Rat liver AMPK heterotrimer enzyme was obtained from Upstate (Billerica, Mass., U.S.A.). […]
pEC50: −log10 of the molar value.
measurement label: pEC50

Use the examples below as a reference point.
{"compound": "Cc1cc(NC(=O)c2cccc(CN3C(=O)[C@@]4(C[C@H]4c4ccc(Cl)cc4)c4ccccc43)c2)[nH]n1 (racemic)", "measurement label": "pEC50", "number": 5.64}
{"compound": "O=C1N(CCN2CCN(c3ccncc3)CC2)c2ccccc2[C@@]12C[C@@H]2c1ccc(Cl)cc1 (racemic)", "measurement label": "pEC50", "number": 5.77}
{"compound": "O=C1N(CCN2CCOCC2)c2ccccc2[C@@]12C[C@@H]2c1ccc(Cl)cc1 (racemic)", "measurement label": "pEC50", "number": 5.39}
{"compound": "CC(C)N1CCN(CCN2C(=O)[C@]3(C[C@@H]3c3ccc(Cl)cc3)c3ccccc32)CC1 (racemic)", "measurement label": "pEC50", "number": 5.06}
{"compound": "O=C(O)c1cccc(CN2C(=O)[C@]3(C[C@H]3c3cccc(F)c3)c3ccccc32)c1 (racemic)", "measurement label": "pEC50", "number": 5.69}

1: O=C(O)c1cccc(CN2C(=O)[C@]3(C[C@@H]3c3ccc(Cl)cc3)c3ccccc32)n1 (racemic)
2: O=C(O)c1cccc(CN2C(=O)[C@]3(C[C@H]3c3ccc(Cl)cc3)c3cc(F)ccc32)c1 (racemic)
3: CN(C)CCN1CCN(CCN2C(=O)[C@]3(C[C@@H]3c3ccc(Cl)cc3)c3ccccc32)CC1 (racemic)
Q: Hey, can you sort those compounds up there by pEC50, smallest first? Record the ranking as a list of labels in the requested order.
A: 3, 1, 2
